B1: ANKRD17 (parent)
chain: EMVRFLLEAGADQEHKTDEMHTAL

Variants of: B1
Assay: protein stability index of a GFP-peptide fusion (GPS, HEK-293T) (PSI 1-6); higher = more stable;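 note: lentivirally expressed fusions sorted by FACS into six bins by GFP to DsRed ratio, PSI derived from sequencing read proportions per bin multiplied by bin number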
Settings: c terminus: a fixed tail appended
REPORTED METRIC: protein stability index
Output spec: single numeric token, no unit.

Past entries and their recorded results:
EMVRFLLEAGADQEHKTDEMHTRL [A23R]; 2.96
EMVRKLLEAGADQEHKTDEMHTAL [F5K]; 4.33
EMVRFLNEAGADQEHKTDEMHTAL [L7N]; 3.72

Lab note: next variant to report on.
Problem: Provide protein stability index value for the following variant: EMVRFLLEAGAFQEHKTDEMHTAL [D12F]
Result: 1.66

Reference source for all entries: the supplement of paper PMC10567573
